- tested.system: T1, BCMA on cells (293T cells transfected with BCMA; H929, MM.1S and U266 cell lines expressing BCMA) (human, UniProt Q02223 1-184)
- T1 construct: H929, MM.1S and U266 carry the native protein; also called B-cell Maturation Antigen; TNFRSF17
- T1 sequence: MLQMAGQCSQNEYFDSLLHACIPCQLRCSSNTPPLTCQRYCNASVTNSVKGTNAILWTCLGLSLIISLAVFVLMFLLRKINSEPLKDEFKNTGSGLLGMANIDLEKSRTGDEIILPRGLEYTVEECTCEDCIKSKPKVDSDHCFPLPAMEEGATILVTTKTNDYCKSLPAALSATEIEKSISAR
- experimental.details: flow cytometry, 293T cells transfected with BCMA, above parental 293T background; further: test concentration or dose not given here
property.label: Positive (%)
Please answer using a numeric value trailed by its unit.

SCT-Aa13(m/m) (antibody, V domains shown, Full IgG format: mouse IgG1 heavy chain constant region, mouse kappa light chain constant region) VH: QVQLQQSDAELVKPGASVKISCKVSGYTFTDYTIHWMKQRPEQGLEWIGYIYPRDGSTKYNEKFKGKATLTADKSSSTAYMQLNSLTSEDSAVYFCARWDYEGFDYWGQGTTLTVSS VL: DIVMTQSPATLSVTPGDRVSLSCRASQSISDYLHWYQQKSHESPRLLIKYASQSISGIPSRFSGSGSGSDFTLSINSVEPEDVGVYYCQNGHSFPPTFGSGTKLEIK; 84.4%

Continue with the binder presented below.
What value of measured Positive (%) is listed for SCT-Aa10(h/h) (antibody, V domains shown, Full IgG format, chimeric: human IgG1 heavy chain constant region, human kappa light chain constant region) VH: QVQLQQSDAELVKPGASVKISCKVSGYTFTDHTIHWMKQRPEQGLEWIGYIFPRDGNTKYNEKFKGKATMTADKSSSTAYMQLNSLTSEDSAVYFCARWDYEGFDCWGQGTTLTVSS VL: DIVMTQSPATLSVTPGDRVSLSCRASQSISDYLHWYQQKSHESPRLLIKYASQSISGIPSRFSGSGSGSDFTLSINSVEPEDVGVYFCQNGHSFPPTFGSGTKLEIK ? 57.9%
